The reported numbers originate from patent US9796753B2.

test system: breast MDA-MB-435; assay: COMPARE screening (NCI human cancer cell line screen), cytotoxicity GI50; assay type: cell-based
Recorded GI50 for the following compounds

INSERT INTO assay_data (compound, measured_endpoint, measured_value) VALUES
  ('CC(C)(C)OC(=O)NCCCCCCCCCCCn1c2c(c3ccccc3c1=O)C(=O)c1ccccc1-2', 'GI50', '> 100 µM'),
  ('COc1cc2c3c(n(CCCN4CCN(C)CC4)c(=O)c2cc1OC)-c1cc2c(cc1C3=O)OCO2', 'GI50', '> 100 µM');

Q) Input COc1cc2c3c(n(CCCN(CCCN(CCCn4c5c(c6ccccc6c4=O)C(=O)c4ccccc4-5)C(=O)OC(C)(C)C)C(=O)OC(C)(C)C)c(=O)c2cc1OC)-c1cc2c(cc1C3=O)OCO2 [Compound 16a] , output reported GI50.
A) > 100 µM
